For each record, write down the corresponding IC50PTP/IC50SHP2 MEG2.
# assaySystem: MEG2 (Homo sapiens, UniProt P43378)
# Construct: made in house; host or cells: E. coli
# Sequence (P43378 whole entry): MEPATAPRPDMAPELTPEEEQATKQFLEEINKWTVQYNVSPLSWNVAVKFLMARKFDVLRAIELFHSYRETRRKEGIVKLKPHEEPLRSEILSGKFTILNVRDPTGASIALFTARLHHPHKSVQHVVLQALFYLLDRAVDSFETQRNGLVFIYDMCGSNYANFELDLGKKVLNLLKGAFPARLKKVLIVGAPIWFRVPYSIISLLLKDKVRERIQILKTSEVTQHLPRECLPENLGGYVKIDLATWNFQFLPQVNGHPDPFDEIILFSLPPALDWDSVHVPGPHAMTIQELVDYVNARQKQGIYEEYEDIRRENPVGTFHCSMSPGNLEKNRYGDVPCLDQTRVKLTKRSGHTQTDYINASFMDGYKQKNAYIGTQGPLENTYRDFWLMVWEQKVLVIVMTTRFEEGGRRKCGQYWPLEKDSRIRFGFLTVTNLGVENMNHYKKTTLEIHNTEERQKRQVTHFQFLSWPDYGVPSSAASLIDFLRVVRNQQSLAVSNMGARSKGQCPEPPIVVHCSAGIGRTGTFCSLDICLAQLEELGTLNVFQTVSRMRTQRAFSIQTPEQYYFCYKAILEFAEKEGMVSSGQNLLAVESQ
# methodDescription: Tyrosine phosphatase selectivity (pNPP substrate), MEG2
# Type: biochemical
# measurementSetup: selectivity ratio MEG2 over SHP2
One number for each entry.

// solved cases for IC50PTP/IC50SHP2 MEG2 follow
molecule	assaySystem	IC50PTP/IC50SHP2 MEG2
O=C(Nc1ccc(-c2cc3cc(F)c(-c4nnn[nH]4)cc3n2C2CCC2)cc1)C(=O)Nc1ccc(N2CCOCC2)cc1	MEG2 (Homo sapiens, UniProt P43378)	15.7
O=C(Nc1ccc(-c2ccsc2)cc1)C(=O)Nc1ccc(-c2oc3cc(F)c(-c4nnn[nH]4)cc3c2C2CCC2)cc1	MEG2 (Homo sapiens, UniProt P43378)	120
O=C(Nc1ccc(-c2ccsc2)cc1)C(=O)Nc1ccc(-c2cc3ccc(-c4nnn[nH]4)nc3n2C2CCC2)cc1	MEG2 (Homo sapiens, UniProt P43378)	122.0
O=C(Nc1ccc(-c2cc3cc(F)c(-c4nnn[nH]4)cc3n2C2CCC2)cc1)C(=O)Nc1ccc(N2CC3COCC3C2)cc1 (stereo not drawn)	MEG2 (Homo sapiens, UniProt P43378)	23.0
O=C(Nc1ccc(-c2ccsc2)cc1)C(=O)Nc1ccc(-c2cc3cc(F)c(-c4nnn[nH]4)nc3n2C2CCC2)cc1	MEG2 (Homo sapiens, UniProt P43378)	559.3

Memo: "Cn1cc(-c2ccc(NC(=O)C(=O)Nc3ccc(-c4cc5cc(F)c(-c6nnc(C(F)(F)F)[nH]6)cc5n4C4CCC4)cc3)cc2)cn1" , reported IC50PTP/IC50SHP2 MEG2: 139.7
